Target: Fuc(a1-2)Gal(b1-4)GlcNAc
Experiment: glycan array binding signal (z-score within array); higher = stronger binding
Conditions: glycan notation: IUPAC condensed, linker removed
Many of the other results were omitted from the sample, so the strongest signals are more common in it than they were.
reported-metric: glycan array binding signal (z-score)

>  <binder>
Gal 1 (Mus musculus), P16045 (protein) MACGLVASNLNLKPGECLKVRGEVASDAKSFVLNLGKDSNNLCLHFNPRFNAHGDANTIVCNTKEDGTWGTEHREPAFPFQPGSITEVCITFDQADLTIKLPDGHEFKFPNRLNMEAINYMAADGDFKIKCVAFE

>  <reading>
-0.279

$$$$
>  <binder>
LEA (Lycopersicon esculentum) (protein) NEVFDVPMNETIGVESINASVGGYPRCGAQGDGGNCPSGMCCSVWGWCGKTYGYCAPQNCQKQCPAPYPEGRCGWQADGKSCPNGKCCSYGGWCGTTSDYCARQNCQKQCILPSPPPPPPPPPGFPRPECGLQKNGERCTKPGECCSIWGLCGATYKYCDPQHCQKQCSAPFPPGRCGWQADGRPCPTGQCCSFSGWCGTTSAHCTYPQCVSQCNDPRFPSSLNNRIQSFML

>  <reading>
1.11

$$$$
>  <binder>
AAL (Agrocybe aegerita), Q6WY08 (protein) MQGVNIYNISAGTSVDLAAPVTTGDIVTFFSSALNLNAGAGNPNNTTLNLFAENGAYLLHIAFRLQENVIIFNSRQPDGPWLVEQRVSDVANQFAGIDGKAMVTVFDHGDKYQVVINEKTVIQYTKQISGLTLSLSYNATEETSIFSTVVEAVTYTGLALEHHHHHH

>  <reading>
-0.146

$$$$
>  <binder>
LCA (Lens culinaris), P02870 (protein) MASLQTQMISFYLIFLSILLTTIFFFKVNSTETTSFSITKFSPDQKNLIFQGDGYTTKGKLTLTKAVKSTVGRALYSTPIHIWDRDTGNVANFVTSFTFVIDAPSSYNVADEFTFFIAPVDTKPQTGGGYLGVFNSKEYDKTSQTVAVEFDTFYNAAWDPSNKERHIGIDVNSIKSVNTKSWNLQNGERANVVIAFNAATNVLTVTLTYPNSLEEENVTSYTLNEVVPLKDVVPEWVRIGFSATTGAEFAAHEVHSWSFHSELGGTSSSKQAADA

>  <reading>
-0.217

$$$$
